- protocol_notes: Biodistribution in PC-3 tumor-bearing CB17-SCID mice
- Format: in vivo
- condition_context: mouse, pancreas, intravenous, 100 pmol, ^177Lu-labeled; 1 h p.i.; 100 pmol; n = 4; read-out: Uptake in Pancreas
- Description: To establish tumor xenografts, PC-3 cells (5.0 × 10^6 cells per 200 µL) were suspended in a 1/1 mixture (v/v) of Dulbecco’s modified eagle's medium/Ham’s F-12 with Glutamax-I (v/v = 1/1) and Cultrex® Basement Membrane Matrix Type 3 (Trevigen Inc., Gaithersburg, MD, USA) and inoculated subcutaneously onto the right shoulder of CB17-SCID mice (Charles River Laboratories International Inc., Sulzfeld, Germany). […] Biodistribution. […] Selected organs were removed, weighted and measured in a γ-counter.
Starred links: 1 amine or outer side, 2 acyl side, 3 side chain; linkers in the order of their positions; H or OH if unused. Non-standard residues stand in square brackets, D forms with d. Residues, ends and D or L forms follow the SMILES beside them. *: point of attachment. DOTA = O=C(O)CN1CCN(CC(=O)O)CCN(CC(=O)*)CCN(CC(=O)O)CC1; Sta = CC(C)C[C@H](N)[C@@H](O)CC(=O)O; Bta = N[C@@H](Cc1csc2ccccc12)C(=O)O; X1 = O=C(CN1CCC(N[*:1])CC1)[*:2]; hSer = N[C@@H](CCO)C(=O)O
quantity: tissue uptake at 1 h (%ID/g)
Please state the figure in %ID/g; there is no need to write the unit.

CC(C)C[C@H](NC(=O)C[C@H](O)[C@H](CC(C)C)NC(=O)[C@H](Cc1c[nH]cn1)NC(=O)CNC(=O)[C@@H](NC(=O)[C@H](C)NC(=O)[C@H](Cc1csc2ccccc12)NC(=O)[C@H](CCC(N)=O)NC(=O)[C@@H](Cc1ccccc1)NC(=O)CN1CCC(NC(=O)CN2CCN(CC(=O)O)CCN(CC(=O)O)CCN(CC(=O)O)CC2)CC1)C(C)C)C(N)=O [[^177Lu]Lu-[Bta^8]RM2, metal not drawn] ({DOTA}-[X1][dF]Q[Bta]AVGH[Sta]L-NH2)    3.7

Kindly review the next compound as well.
Param item = CC(C)C[C@H](NC(=O)C[C@H](O)[C@H](CC(C)C)NC(=O)[C@H](Cc1c[nH]cn1)NC(=O)CNC(=O)[C@@H](NC(=O)[C@H](C)NC(=O)[C@H](Cc1c[nH]c2ccccc12)NC(=O)[C@H](CCO)NC(=O)[C@@H](Cc1ccccc1)NC(=O)CN1CCC(NC(=O)CN2CCN(CC(=O)O)CCN(CC(=O)O)CCN(CC(=O)O)CC2)CC1)C(C)C)C(N)=O [[^177Lu]Lu-[Hse^7]RM2, metal not drawn] ({DOTA}-[X1][dF][hSer]WAVGH[Sta]L-NH2) ; retrieve measured tissue uptake at 1 h. 8

* * *

Property: tissue uptake at 1 h; scope: individual compounds
- protocol_notes: Biodistribution in PC-3 tumor-bearing CB17-SCID mice
- Assay type: in vivo
- condition_context: mouse, spleen, intravenous, 100 pmol, ^68Ga-labeled; 1 h p.i.; 100 pmol; n = 4; read-out: Uptake in Spleen
- Protocol: To establish tumor xenografts, PC-3 cells (5.0 × 10^6 cells per 200 µL) were suspended in a 1/1 mixture (v/v) of Dulbecco’s modified eagle's medium/Ham’s F-12 with Glutamax-I (v/v = 1/1) and Cultrex® Basement Membrane Matrix Type 3 (Trevigen Inc., Gaithersburg, MD, USA) and inoculated subcutaneously onto the right shoulder of CB17-SCID mice (Charles River Laboratories International Inc., Sulzfeld, Germany). […] Biodistribution. […] Selected organs were removed, weighted and measured in a γ-counter.
Starred links: 1 amine or outer side, 2 acyl side, 3 side chain; linkers in the order of their positions; H or OH if unused. Non-standard residues stand in square brackets, D forms with d. Residues, ends and D or L forms follow the SMILES beside them. *: point of attachment. DOTA = O=C(O)CN1CCN(CC(=O)O)CCN(CC(=O)*)CCN(CC(=O)O)CC1; Sta = CC(C)C[C@H](N)[C@@H](O)CC(=O)O; Bta = N[C@@H](Cc1csc2ccccc12)C(=O)O; X1 = O=C(CN1CCC(N[*:1])CC1)[*:2]; hSer = N[C@@H](CCO)C(=O)O
Please reply with the bare figure in %ID/g and do not write the unit itself.

CC(C)C[C@H](NC(=O)C[C@H](O)[C@H](CC(C)C)NC(=O)[C@H](Cc1c[nH]cn1)NC(=O)CNC(=O)[C@@H](NC(=O)[C@H](C)NC(=O)[C@H](Cc1c[nH]c2ccccc12)NC(=O)[C@H](CCO)NC(=O)[C@@H](Cc1ccccc1)NC(=O)CN1CCC(NC(=O)CN2CCN(CC(=O)O)CCN(CC(=O)O)CCN(CC(=O)O)CC2)CC1)C(C)C)C(N)=O [[^68Ga]Ga-[Hse^7]RM2, metal not drawn] ({DOTA}-[X1][dF][hSer]WAVGH[Sta]L-NH2)    1.55

Suppose we examine the compound CC(C)C[C@H](NC(=O)C[C@H](O)[C@H](CC(C)C)NC(=O)[C@H](Cc1c[nH]cn1)NC(=O)CNC(=O)[C@@H](NC(=O)[C@H](C)NC(=O)[C@H](Cc1csc2ccccc12)NC(=O)[C@H](CCC(N)=O)NC(=O)[C@@H](Cc1ccccc1)NC(=O)CN1CCC(NC(=O)CN2CCN(CC(=O)O)CCN(CC(=O)O)CCN(CC(=O)O)CC2)CC1)C(C)C)C(N)=O [[^68Ga]Ga-[Bta^8]RM2, metal not drawn] ({DOTA}-[X1][dF]Q[Bta]AVGH[Sta]L-NH2) ; what tissue uptake at 1 h value has been reported? 0.46
